Each recorded value in this set is attributed to ChEMBL document CHEMBL1949632.

Reported AUC(0-t) at 6 h values follow for various molecules
experiment: AUC (0 to 6 hrs) in C57BL/6 mouse at 10 mg/kg, po; type: ADME, organism-based, C57BL6; design: time < 6 hr, dose 10 mg/kg, route oral; details: plasma
Measured parameter: AUC(0-t) at 6 h (µM·h)

Chemical structure	Measured parameter	Measure unit	Measured
O=C(O)Cn1nnc(-c2cc(OCCCOc3cc(F)ccc3Br)no2)n1	AUC(0-t) at 6 h	µM·h	1
O=C(O)Cn1nnc(-c2cnc(OCCCOc3cc(F)ccc3Br)s2)n1	AUC(0-t) at 6 h	µM·h	11.4

* * *

Target: Acyl-CoA desaturase 1 (Rattus norvegicus, UniProt P07308)
Sequence (P07308 whole entry): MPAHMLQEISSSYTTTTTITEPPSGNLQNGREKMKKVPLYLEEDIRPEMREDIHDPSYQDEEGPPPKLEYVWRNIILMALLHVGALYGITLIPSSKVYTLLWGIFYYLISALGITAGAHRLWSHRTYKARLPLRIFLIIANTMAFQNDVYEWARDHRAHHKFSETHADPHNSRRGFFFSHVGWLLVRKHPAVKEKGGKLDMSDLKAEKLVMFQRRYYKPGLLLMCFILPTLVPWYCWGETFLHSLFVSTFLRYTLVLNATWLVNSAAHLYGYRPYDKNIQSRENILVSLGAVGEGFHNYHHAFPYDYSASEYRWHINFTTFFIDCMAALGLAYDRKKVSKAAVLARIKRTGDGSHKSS
Experiment: Inhibition of SCD1 in rat hepatocytes expressing OATP
Type: cell-based, Hepatocyte

Chemical structure	IC50
O=C(O)Cn1nnc(-c2cnc(OCCCOc3cc(OC(F)(F)F)ccc3Br)s2)n1	0.091 µM
O=C(O)Cn1nnc(-c2cnc(OCCCOc3cc(F)ccc3Br)s2)n1	0.176 µM
O=C(O)Cn1nnc(-c2cc(OCCCOc3cc(F)ccc3Br)no2)n1	0.213 µM
Cc1nc(OCCCOc2cc(F)ccc2Br)sc1-c1nnn(CC(=O)O)n1	0.945 µM

* * *

biological target: Stearoyl-CoA desaturase (Homo sapiens); assay: Inhibition of SCD1 in OATP-deficient human HepG2 cells by whole cell assay; format: cell-based
Sequence (O00767 whole entry): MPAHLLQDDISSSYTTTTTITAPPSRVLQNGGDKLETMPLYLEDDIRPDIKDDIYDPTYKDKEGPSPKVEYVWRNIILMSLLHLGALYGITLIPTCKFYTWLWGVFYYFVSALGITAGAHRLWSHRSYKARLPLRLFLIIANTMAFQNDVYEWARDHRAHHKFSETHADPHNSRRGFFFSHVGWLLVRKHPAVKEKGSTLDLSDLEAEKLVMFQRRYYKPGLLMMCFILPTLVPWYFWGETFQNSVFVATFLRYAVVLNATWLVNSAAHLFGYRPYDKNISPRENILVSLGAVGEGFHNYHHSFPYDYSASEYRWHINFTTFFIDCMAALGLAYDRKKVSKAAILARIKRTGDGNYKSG

Chemical structure	Target entity	IC50
O=C(O)Cn1nnc(-c2cc(OCCOCc3cc(F)ccc3Br)no2)n1	Stearoyl-CoA desaturase (Homo sapiens)	> 100 µM
O=C(O)Cn1nnc(-c2cc(OCCOc3cc(F)ccc3Br)no2)n1	Stearoyl-CoA desaturase (Homo sapiens)	> 40 µM
O=C(O)Cn1nnc(-c2nnc(OCCCOc3cc(F)ccc3Br)s2)n1	Stearoyl-CoA desaturase (Homo sapiens)	> 60 µM
O=C(O)Cn1nnc(-c2cc(OCCCCOc3cc(F)ccc3Br)no2)n1	Stearoyl-CoA desaturase (Homo sapiens)	> 40 µM
